study_system: Replicase polyprotein 1ab (Severe acute respiratory syndrome coronavirus 2)
// boundary case: IC50 equal to 10 nM maps to Condition not met; strictly smaller maps to Condition met

Consider the following illustrative entries.
O=C1C[C@H]2Cc3ccccc3N2C(=O)c2cncc(c2)/C=C/CCCCCOC(=O)[C@@H](Cc2ccc(Cl)cc2)N1; Condition not met
O=C1C[C@H]2CCCN2C(=O)c2cncc(c2)CCCCCCCOC(=O)[C@@H](Cc2ccc(Cl)cc2)N1; Condition not met
O=C1C[C@H]2Cc3ccccc3N2C(=O)c2cncc(c2)/C=C/CCCCCOC(=O)[C@@H](Cc2ccc(Cl)c(Cl)c2)N1; Condition not met
O=C1C[C@H]2CCCN2C(=O)c2cncc(c2)/C=C/CCCCCNC(=O)[C@@H](Cc2ccc(Cl)cc2Cl)N1; Condition met
CNC[C@@H](Cc1ccc(Cl)cc1)N(C)C(=O)C[C@H]1Cc2ccccc2N1C(=O)c1cncc2ccccc12; Condition not met

Kindly consider the entry below.
// query Below 10 nM on IC50? Entry `CNC(=O)[C@H]1CCCCCNc2cncc(c2)C(=O)N2CC3(CC3)C[C@@H]2CC(=O)N(C)[C@H](Cc2ccc(Cl)cc2Cl)C(=O)N1`
// result Condition met
